# tested system: recombinant rat nNOS (Rattus norvegicus, UniProt P29476)
# Construct: made in house; host or cells: E. coli
# measurement description: NOS inhibition, hemoglobin capture assay, nNOS
# Format: biochemical
# test context: Table 2; Ki calculated from the measured IC50 values; at least duplicate
The label label 1 is reserved for Ki strictly under 1000 nM; label 0 covers values equal to or above it.

Recorded results for 5 compounds are shown here.
{"cpd smiles": "N=C(NCCC[C@H](N)CNc1ccccc1CN)N[N+](=O)[O-]", "tested system": "recombinant rat nNOS (Rattus norvegicus, UniProt P29476)", "qualitative label": "label 0"}
{"cpd smiles": "N=C(NCCC[C@H](N)CNCCc1ccc(N)cc1)N[N+](=O)[O-]", "tested system": "recombinant rat nNOS (Rattus norvegicus, UniProt P29476)", "qualitative label": "label 1"}
{"cpd smiles": "N=C(NCCC[C@H](N)CNc1ccc(CN)cc1)N[N+](=O)[O-]", "tested system": "recombinant rat nNOS (Rattus norvegicus, UniProt P29476)", "qualitative label": "label 0"}
{"cpd smiles": "N=C(NCCC[C@H](N)CNCc1cccnc1)N[N+](=O)[O-]", "tested system": "recombinant rat nNOS (Rattus norvegicus, UniProt P29476)", "qualitative label": "label 1"}
{"cpd smiles": "N=C(NCCC[C@H](N)CNCCc1ccccc1N)N[N+](=O)[O-]", "tested system": "recombinant rat nNOS (Rattus norvegicus, UniProt P29476)", "qualitative label": "label 0"}

Regarding `N=C(NCCC[C@H](N)CNCCc1cccc(N)c1)N[N+](=O)[O-]` , kindly confirm whether its Ki is beneath 1000 nM. label 0

Consider `N=C(NCCC[C@H](N)CNc1cccc(N)c1)N[N+](=O)[O-]` . Does its Ki lie strictly below 1000 nM? label 0

Does the reported Ki of `N=C(NCCC[C@H](N)CNc1ccc(N)cc1)N[N+](=O)[O-]` stay below 1000 nM? label 0

###

# tested system: recombinant murine iNOS (Mus musculus)
# Construct: made in house; host or cells: E. coli
# measurement description: NOS inhibition, hemoglobin capture assay, iNOS
# Type: biochemical
# test context: Table 2; Ki calculated from the measured IC50 values; at least duplicate
pKi: −log10 of the molar value.
// 0 strictly below 4 in pKi; 1 otherwise

Known results for compounds:
{"cpd smiles": "N=C(NCCC[C@H](N)CNc1ccccc1CN)N[N+](=O)[O-]", "qualitative label": 1}
{"cpd smiles": "N=C(NCCC[C@H](N)CNCc1cccnc1)N[N+](=O)[O-]", "qualitative label": 0}
{"cpd smiles": "N=C(NCCC[C@H](N)CNCCc1ccccc1N)N[N+](=O)[O-]", "qualitative label": 0}
{"cpd smiles": "N=C(NCCC[C@H](N)CNCCc1cccc(N)c1)N[N+](=O)[O-]", "qualitative label": 0}
{"cpd smiles": "N=C(NCCC[C@H](N)CNCc1ccncc1)N[N+](=O)[O-]", "qualitative label": 0}

Next:
Reported pKi reaches at least 4 for `N=C(NCCC[C@H](N)CNc1ccc(N)cc1)N[N+](=O)[O-]` ? 0

###

# tested system: recombinant rat nNOS (Rattus norvegicus)
# Construct: made in house; host or cells: E. coli
# measurement description: NOS inhibition, hemoglobin capture assay, nNOS
# Format: biochemical
# test context: Table 4; proline derivatives at the N-terminus; 100 μM; lower value = more potent
Catalogue of molecules with associated nNOS Activity @ 100 μM

# annotated cases, reported nNOS Activity @ 100 μM shown
{"molecule": "N=C(NCCCC(NC(=O)C1CC(N)CN1)C(N)=O)N[N+](=O)[O-] [Compound 62, L-cis-Pro^4NH2-L-Arg^NO2-NH2]", "tested system": "recombinant rat nNOS (Rattus norvegicus)", "nNOS Activity @ 100 μM": "48%"}
{"molecule": "[N-]=[N+]=NC1CNC(C(=O)NC(CCCNC(=N)N[N+](=O)[O-])C(N)=O)C1 [Compound 94, D-trans-Pro^4N3-D-Arg^NO2-NH2]", "tested system": "recombinant rat nNOS (Rattus norvegicus)", "nNOS Activity @ 100 μM": "50%"}
{"molecule": "NC(=O)[C@@H](CCCNC(N)=N[N+](=O)[O-])NC(=O)[C@@H]1C[C@H](N)CN1 (stereo in doubt) [Compound 84, L-cis-Pro^4NH2-D-Arg^NO2-NH2]", "tested system": "recombinant rat nNOS (Rattus norvegicus)", "nNOS Activity @ 100 μM": "24%"}
{"molecule": "[N-]=[N+]=NC1CNC(C(=O)NC(CCCNC(=N)N[N+](=O)[O-])C(N)=O)C1 [Compound 92, D-trans-Pro^4N3-L-Arg^NO2-NH2]", "tested system": "recombinant rat nNOS (Rattus norvegicus)", "nNOS Activity @ 100 μM": "39%"}
{"molecule": "NC(=O)[C@@H](CCCNC(N)=N[N+](=O)[O-])NC(=O)[C@@H]1C[C@@H](N)CN1 (relative stereo) [Compound 89, L-trans-Pro^4NH2-D-Arg^NO2-NH2]", "tested system": "recombinant rat nNOS (Rattus norvegicus)", "nNOS Activity @ 100 μM": "47%"}

Looking for the measured nNOS Activity @ 100 μM of NC(=O)[C@@H](CCCNC(N)=N[N+](=O)[O-])NC(=O)[C@H]1C[C@H](N)CN1 (relative stereo) [Compound 93, D-trans-Pro^4NH2-D-Arg^NO2-NH2] , can you help? 55%

For [N-]=[N+]=N[C@H]1CN[C@H](C(=O)N[C@H](CCCNC(N)=N[N+](=O)[O-])C(N)=O)C1 (relative stereo) [Compound 90, L-trans-Pro^4N3-D-Arg^NO2-NH2] , what is its reported nNOS Activity @ 100 μM? 25%

Sample NC(=O)[C@H](CCCNC(N)=N[N+](=O)[O-])NC(=O)[C@H]1C[C@@H](N)CN1 (stereo in doubt) [Compound 85, D-cis-Pro^4NH2-L-Arg^NO2-NH2] — what was its nNOS Activity @ 100 μM? 42%

# query: nNOS Activity @ 100 μM of entry NC(=O)[C@@H](CCCNC(N)=N[N+](=O)[O-])NC(=O)[C@H]1C[C@@H](N)CN1 (relative stereo) [Compound 86, D-cis-Pro^4NH2-D-Arg^NO2-NH2] 54%

Quick check: nNOS Activity @ 100 μM of N=C(NCCC[C@H](NC(=O)[C@@H]1C[C@@H](N)CN1)C(N)=O)N[N+](=O)[O-] [Compound 87, L-trans-Pro^4NH2-L-Arg^NO2-NH2] ? 24%

Which nNOS Activity @ 100 μM is listed for [N-]=[N+]=N[C@H]1CN[C@H](C(=O)N[C@@H](CCCNC(N)=N[N+](=O)[O-])C(N)=O)C1 (relative stereo) [Compound 88, L-trans-Pro^4N3-L-Arg^NO2-NH2] ? 67%

Fill blank: measured nNOS Activity @ 100 μM of the molecule N=C(NCCCC(NC(=O)C1CC(N)CN1)C(N)=O)N[N+](=O)[O-] [Compound 91, D-trans-Pro^4NH2-L-Arg^NO2-NH2] is ____. 35%
